# test_system: High affinity cGMP-specific 3',5'-cyclic phosphodiesterase 9A (Homo sapiens, UniProt O76083)
# Sequence (O76083 whole entry): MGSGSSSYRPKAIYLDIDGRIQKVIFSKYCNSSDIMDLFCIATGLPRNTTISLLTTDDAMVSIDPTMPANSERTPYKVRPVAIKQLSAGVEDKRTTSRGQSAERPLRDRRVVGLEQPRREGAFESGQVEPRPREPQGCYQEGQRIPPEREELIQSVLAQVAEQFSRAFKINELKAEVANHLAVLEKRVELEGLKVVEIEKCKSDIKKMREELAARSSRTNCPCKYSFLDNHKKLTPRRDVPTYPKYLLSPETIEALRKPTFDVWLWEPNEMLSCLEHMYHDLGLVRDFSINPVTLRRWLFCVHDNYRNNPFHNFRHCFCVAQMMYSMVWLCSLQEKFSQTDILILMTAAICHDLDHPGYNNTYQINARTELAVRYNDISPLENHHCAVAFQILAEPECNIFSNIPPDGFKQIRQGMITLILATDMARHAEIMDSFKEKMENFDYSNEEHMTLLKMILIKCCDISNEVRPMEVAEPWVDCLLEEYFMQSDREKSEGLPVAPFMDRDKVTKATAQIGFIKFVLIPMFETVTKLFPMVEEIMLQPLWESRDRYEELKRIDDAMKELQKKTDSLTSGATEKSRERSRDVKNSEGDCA
attribute_measured: pIC50
FYI, pIC50 means -log10 of a concentration in mol per litre.

**Query** Requested read-out: pIC50. Entry: O=c1[nH]c(Cc2ccccn2)nc2c1cnn2C1CCOCC1
**Result** 7.19
